These data points were gathered from patent US11014920B2.

Reported pIC50 values, UniProt:P00748.
Recall that pIC50 is obtained by taking minus log10 of the concentration measured in molar.

Known results for molecules:
[
  {
    "molecule": "CN(C)CCCC[C@@H](NC1CCC2(CC1)CCN(Cc1ccccc1)C2)C(=O)N1CC[C@@H](NC(=O)N2CCC3(CC2)CC3)[C@@H](C(=O)NCc2cccs2)C1 (stereo partly shown)",
    "observed result": 8.82
  },
  {
    "molecule": "Cc1ccc(C(=O)N[C@@H]2CCN(C(=O)[C@@H](CCCCN(C)C)N(C)C3CCCCC3)C[C@@H]2C(=O)NCc2cccs2)c(F)c1",
    "observed result": 7.42
  },
  {
    "molecule": "O=C(NCc1cccs1)[C@H]1CN(C(=O)[C@@H](CC2CCNCC2)NC2CCCCC2)CC[C@H]1NC(=O)N1CCC2(CC1)CC2",
    "observed result": 7.33
  }
]

Specify the recorded pIC50 for O=C(NCc1cccs1)[C@H]1CN(C(=O)[C@@H](CC2CCCCC2)NC2CCCCC2)CC[C@H]1NC(=O)N1CCCC2(CCNC2=O)C1 (stereo partly shown) , system: UniProt:P00748.
6.37

Give pIC50 for `O=C(NCc1cccs1)[C@H]1CN(C(=O)[C@@H](CCCCN2CCCS2(=O)=O)NC2CCCCC2)CC[C@H]1NC(=O)N1CCC2(CC1)CC2` tested on UniProt:P00748.
7.94

Under UniProt:P00748, report pIC50 for `NCCCC[C@@H](NC1CCCCC1)C(=O)N1CC[C@@H](NC(=O)N2CCC3(CC2)CC3)[C@@H](C(=O)NCc2cccs2)C1`
7.15

Output reported pIC50 of the molecule Cc1cnc(C(=O)NC2CCN(C(=O)[C@@H](CC3CCCCC3)NC3CCCCC3)CC2C(=O)NCc2ccc(CN)cc2)s1 (stereo partly shown) on UniProt:P00748.
7.13

Determine reported pIC50 for `CN(C)CCCC[C@@H](NC1CCCCC1)C(=O)N1CC[C@@H](NC(=O)N2CCC3(CC2)CC3)[C@@H](C(=O)NCc2cccs2)C1` ; test system: UniProt:P00748.
8.24

Supply pIC50 measured with UniProt:P00748 for `CC(=O)OCCCC[C@@H](NC1CCCCC1)C(=O)N1CC[C@@H](NC(=O)N2CCC3(CC2)CC3)[C@@H](C(=O)NCc2cccs2)C1` .
7.18

Please tell me the measured pIC50 for `Cc1csc(CNC(=O)[C@H]2CN(C(=O)[C@@H](CCCCN)NC3CCCCC3)CC[C@H]2NC(=O)N2CCC3(CC2)CC3)c1` ; system: UniProt:P00748.
7.22

* * *

Entries with their measured IC50, system purified human Factor XIIa (Homo sapiens (Human)):
Give the quantity in nM, number only.

Return IC50 for the following compound: `Cc1cnc(C(=O)N[C@@H]2CCN(C(=O)[C@@H](CC3CCCCC3)NC3CCCCC3)C[C@@H]2C(=O)NCc2ccc3[nH]cc(Cl)c3c2)s1`
49.2

* * *

target: purified human Factor XIIa (Homo sapiens (Human), UniProt P00748); test: Factor XIIa assay; format: biochemical; conditions: substrate n-Acetyl-Lys-Pro-Arg-AFC 100 μM, pH 7.4, read-out: FXIIa IC50
Sequence (P00748 373-615): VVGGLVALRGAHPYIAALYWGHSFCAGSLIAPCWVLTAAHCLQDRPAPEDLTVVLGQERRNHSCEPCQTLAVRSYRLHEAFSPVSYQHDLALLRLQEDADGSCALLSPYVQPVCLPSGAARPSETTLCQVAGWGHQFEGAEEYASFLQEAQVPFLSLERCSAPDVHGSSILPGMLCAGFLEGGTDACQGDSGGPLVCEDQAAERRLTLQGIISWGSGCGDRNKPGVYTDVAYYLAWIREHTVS
Sequence (P00748 20-372 partner): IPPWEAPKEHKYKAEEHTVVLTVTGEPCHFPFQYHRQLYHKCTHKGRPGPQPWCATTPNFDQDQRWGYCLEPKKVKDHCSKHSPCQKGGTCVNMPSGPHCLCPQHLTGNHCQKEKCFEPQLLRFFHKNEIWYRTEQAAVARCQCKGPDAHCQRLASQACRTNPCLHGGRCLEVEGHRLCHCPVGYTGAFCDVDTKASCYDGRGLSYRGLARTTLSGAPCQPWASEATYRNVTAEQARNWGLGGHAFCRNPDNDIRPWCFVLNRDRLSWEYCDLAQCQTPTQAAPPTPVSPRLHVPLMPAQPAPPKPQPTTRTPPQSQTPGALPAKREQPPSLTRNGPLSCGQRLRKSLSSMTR
observed property: IC50 (nM)
# value in nM; strip the unit string

Query IC50 for CS(=O)(=O)NCCCC[C@@H](NC1CCCCC1)C(=O)N1CC[C@@H](NC(=O)N2CCC3(CC2)CC3)[C@@H](C(=O)NCc2cccs2)C1 [Compound 23]
52.4

Respond only with IC50 recorded for NCCCC[C@@H](NC1CCCCC1)C(=O)N1CC[C@@H](NC(=O)N2CCC3(CC2)CC3)[C@@H](C(=O)NCc2ccccc2)C1 [Compound 13]
98.3
